experiment-summary: Human pharmacokinetics after oral administration
Assay type: in vivo
condition-notes: human, plasma, po, humans, with a high-fat meal
measured-attribute: Tmax

Field request: Tmax | item: O=C(O)c1ccc(CN2C[C@@H]3C[C@H]2CN3Cc2ccc(Oc3ccc(-c4ncco4)cc3)cc2)cc1
5 to 6 h
